- Species: Rattus norvegicus
- assay-text: Open TG-GATES - Regimen: Daily Repeat
- Assay type: toxicity, organism-based, Sprague-Dawley
- Parameters: regimen Daily Repeat, gender Male, age 6 weeks
- condition-set: in vivo, po, 300 mg/kg, 72 h, tissue Plasma, route gavage, dose level Middle, time 3 day
metric: TP (g/dL)
Record the value in g/dL, omitting the unit from your answer.

[[record]]
smiles_structure = "Cc1nnc2n1-c1ccc(Cl)cc1C(c1ccccc1Cl)=NC2"
observed_result = 5.6

[[record]]
smiles_structure = "CCOc1ccc(NC(C)=O)cc1"
observed_result = 5.7


Proceeding to the next compound to report its TP.
Need TP of CNC(=C[N+](=O)[O-])NCCSCc1ccc(CN(C)C)o1 , thanks.
5.5

====

# reported PL; entries follow
- Species on record: Rattus norvegicus
- assay-text: Open TG-GATES - Regimen: Daily Repeat
- Format: toxicity, organism-based, Sprague-Dawley
- Parameters: regimen Daily Repeat, gender Male, age 6 weeks
- condition-set: in vivo, po, 1000 mg/kg, […], tissue Plasma, route gavage, dose level High, time 7 day
Record the value in mg/dL, omitting the unit from your answer.

Record excerpt, results attached:
[[record]]
compound = "CN/C(=N/CCSCc1nc[nH]c1C)NC#N [CIMETIDINE]"
metric = "PL"
measurement_units = "mg/dL"
observed_result = 165.8

[[record]]
compound = "O=C(OC[C@H]1O[C@@H](OC(=O)c2cc(O)c(O)c(OC(=O)c3cc(O)c(O)c(O)c3)c2)[C@H](OC(=O)c2cc(O)c(O)c(OC(=O)c3cc(O)c(O)c(O)c3)c2)[C@@H](OC(=O)c2cc(O)c(O)c(OC(=O)c3cc(O)c(O)c(O)c3)c2)[C@@H]1OC(=O)c1cc(O)c(O)c(OC(=O)c2cc(O)c(O)c(O)c2)c1)c1cc(O)c(O)c(OC(=O)c2cc(O)c(O)c(O)c2)c1 [TANNIC ACID]"
metric = "PL"
measurement_units = "mg/dL"
observed_result = 125.4

[[record]]
compound = "CCOc1ccc(NC(C)=O)cc1 [PHENACETIN]"
metric = "PL"
measurement_units = "mg/dL"
observed_result = 172.4

[[record]]
compound = "CNC(=C[N+](=O)[O-])NCCSCc1ccc(CN(C)C)o1 [RANITIDINE]"
metric = "PL"
measurement_units = "mg/dL"
observed_result = 137.2

[[record]]
compound = "COC(=O)C1=C(C)NC(C)=C(C(=O)OC)C1c1ccccc1[N+](=O)[O-] [NIFEDIPINE]"
metric = "PL"
measurement_units = "mg/dL"
observed_result = 129


Proceeding to the next compound to report its PL.
Need PL of Cc1nnc2n1-c1ccc(Cl)cc1C(c1ccccc1Cl)=NC2 [TRIAZOLAM] , thanks.
160.8

====

- Species on record: Rattus norvegicus
- assay-text: Open TG-GATES - Regimen: Daily Repeat
- Assay type: toxicity, organism-based, Sprague-Dawley
- Set-up: regimen Daily Repeat, gender Male, age 6 weeks
- condition-set: in vivo, po, 1000 mg/kg, […], tissue Blood, route gavage, dose level High, time 28 day
metric: Bas (%)
Record the value in %, omitting the unit from your answer.

Record excerpt, results attached:
[[record]]
molecule = "O=C(OC[C@H]1O[C@@H](OC(=O)c2cc(O)c(O)c(OC(=O)c3cc(O)c(O)c(O)c3)c2)[C@H](OC(=O)c2cc(O)c(O)c(OC(=O)c3cc(O)c(O)c(O)c3)c2)[C@@H](OC(=O)c2cc(O)c(O)c(OC(=O)c3cc(O)c(O)c(O)c3)c2)[C@@H]1OC(=O)c1cc(O)c(O)c(OC(=O)c2cc(O)c(O)c(O)c2)c1)c1cc(O)c(O)c(OC(=O)c2cc(O)c(O)c(O)c2)c1 [TANNIC ACID]"
metric = "Bas"
observed_result = 0

[[record]]
molecule = "COC(=O)C1=C(C)NC(C)=C(C(=O)OC)C1c1ccccc1[N+](=O)[O-] [NIFEDIPINE]"
metric = "Bas"
observed_result = 0

[[record]]
molecule = "CCOc1ccc(NC(C)=O)cc1 [PHENACETIN]"
metric = "Bas"
observed_result = 0


Need Bas of CNC(=C[N+](=O)[O-])NCCSCc1ccc(CN(C)C)o1 [RANITIDINE] , thanks.
0

Need Bas of CN/C(=N/CCSCc1nc[nH]c1C)NC#N [CIMETIDINE] , thanks.
0

Need Bas of Cc1nnc2n1-c1ccc(Cl)cc1C(c1ccccc1Cl)=NC2 [TRIAZOLAM] , thanks.
0.2

====

# reported PT; entries follow
- Organism: Rattus norvegicus
- assay-text: Open TG-GATES - Regimen: Single
- Format: toxicity, organism-based, Sprague-Dawley
- Parameters: regimen Single, gender Male, age 6 weeks
- condition-set: in vivo, po, 300 mg/kg, 24 h, tissue Blood, route gavage, dose level Middle
Record the value in s, omitting the unit from your answer.

[[record]]
smiles_structure = "COC(=O)C1=C(C)NC(C)=C(C(=O)OC)C1c1ccccc1[N+](=O)[O-]"
observed_result = 14.1

[[record]]
smiles_structure = "Cc1nnc2n1-c1ccc(Cl)cc1C(c1ccccc1Cl)=NC2"
observed_result = 13.3

[[record]]
smiles_structure = "CN/C(=N/CCSCc1nc[nH]c1C)NC#N"
observed_result = 12.7

[[record]]
smiles_structure = "O=C(OC[C@H]1O[C@@H](OC(=O)c2cc(O)c(O)c(OC(=O)c3cc(O)c(O)c(O)c3)c2)[C@H](OC(=O)c2cc(O)c(O)c(OC(=O)c3cc(O)c(O)c(O)c3)c2)[C@@H](OC(=O)c2cc(O)c(O)c(OC(=O)c3cc(O)c(O)c(O)c3)c2)[C@@H]1OC(=O)c1cc(O)c(O)c(OC(=O)c2cc(O)c(O)c(O)c2)c1)c1cc(O)c(O)c(OC(=O)c2cc(O)c(O)c(O)c2)c1"
observed_result = 11.7


Proceeding to the next molecule to report its PT.
Need PT of CNC(=C[N+](=O)[O-])NCCSCc1ccc(CN(C)C)o1 , thanks.
12.3

====

# reported TBIL; entries follow
- Species: Rattus norvegicus
- assay-text: Open TG-GATES - Regimen: Single
- Type: toxicity, organism-based, Sprague-Dawley
- Design: regimen Single, gender Male, age 6 weeks
- condition-set: in vivo, po, 1000 mg/kg, 3 h, tissue Plasma, route gavage, dose level High

Record excerpt, results attached:
[[record]]
molecule = "O=C(OC[C@H]1O[C@@H](OC(=O)c2cc(O)c(O)c(OC(=O)c3cc(O)c(O)c(O)c3)c2)[C@H](OC(=O)c2cc(O)c(O)c(OC(=O)c3cc(O)c(O)c(O)c3)c2)[C@@H](OC(=O)c2cc(O)c(O)c(OC(=O)c3cc(O)c(O)c(O)c3)c2)[C@@H]1OC(=O)c1cc(O)c(O)c(OC(=O)c2cc(O)c(O)c(O)c2)c1)c1cc(O)c(O)c(OC(=O)c2cc(O)c(O)c(O)c2)c1 [TANNIC ACID]"
metric = "TBIL"
observed_result = "0.5 mg/dL"

[[record]]
molecule = "Cc1nnc2n1-c1ccc(Cl)cc1C(c1ccccc1Cl)=NC2 [TRIAZOLAM]"
metric = "TBIL"
observed_result = "0.064 mg/dL"

[[record]]
molecule = "COC(=O)C1=C(C)NC(C)=C(C(=O)OC)C1c1ccccc1[N+](=O)[O-] [NIFEDIPINE]"
metric = "TBIL"
observed_result = "0.036 mg/dL"

[[record]]
molecule = "CN/C(=N/CCSCc1nc[nH]c1C)NC#N [CIMETIDINE]"
metric = "TBIL"
observed_result = "0.1 mg/dL"


Need TBIL of CNC(=C[N+](=O)[O-])NCCSCc1ccc(CN(C)C)o1 [RANITIDINE] , thanks.
0.1 mg/dL

====

- Species on record: Rattus norvegicus
- assay-text: Open TG-GATES - Regimen: Daily Repeat
- Format: toxicity, organism-based, Sprague-Dawley
- Design: regimen Daily Repeat, gender Male, age 6 weeks
- condition-set: in vivo, po, 1000 mg/kg, […], tissue Kidney, route gavage, dose level High, time 14 day
metric: KIDNEY_TOTAL (g)
Record the value in g, omitting the unit from your answer.

Record excerpt, results attached:
[[record]]
smiles_structure = "CCOc1ccc(NC(C)=O)cc1"
metric = "KIDNEY_TOTAL"
measurement_units = "g"
observed_result = 2.5

[[record]]
smiles_structure = "Cc1nnc2n1-c1ccc(Cl)cc1C(c1ccccc1Cl)=NC2"
metric = "KIDNEY_TOTAL"
measurement_units = "g"
observed_result = 2.5


Proceeding to the next compound to report its KIDNEY_TOTAL.
Need KIDNEY_TOTAL of CNC(=C[N+](=O)[O-])NCCSCc1ccc(CN(C)C)o1 , thanks.
2.4

====

# reported Lym; entries follow
- Organism: Rattus norvegicus
- assay-text: Open TG-GATES - Regimen: Single
- Format: toxicity, organism-based, Sprague-Dawley
- Set-up: regimen Single, gender Male, age 6 weeks
- condition-set: in vivo, po, 100 mg/kg, 6 h, tissue Blood, route gavage, dose level Low
Record the value in %, omitting the unit from your answer.

[[record]]
smiles_structure = "CN/C(=N/CCSCc1nc[nH]c1C)NC#N"
metric = "Lym"
observed_result = 77.6


Need Lym of Cc1nnc2n1-c1ccc(Cl)cc1C(c1ccccc1Cl)=NC2 , thanks.
76.8

Need Lym of COC(=O)C1=C(C)NC(C)=C(C(=O)OC)C1c1ccccc1[N+](=O)[O-] , thanks.
76.2
